Target: MERTK (UniProt Q12866)
Sequence (Q12866 whole entry, looked up): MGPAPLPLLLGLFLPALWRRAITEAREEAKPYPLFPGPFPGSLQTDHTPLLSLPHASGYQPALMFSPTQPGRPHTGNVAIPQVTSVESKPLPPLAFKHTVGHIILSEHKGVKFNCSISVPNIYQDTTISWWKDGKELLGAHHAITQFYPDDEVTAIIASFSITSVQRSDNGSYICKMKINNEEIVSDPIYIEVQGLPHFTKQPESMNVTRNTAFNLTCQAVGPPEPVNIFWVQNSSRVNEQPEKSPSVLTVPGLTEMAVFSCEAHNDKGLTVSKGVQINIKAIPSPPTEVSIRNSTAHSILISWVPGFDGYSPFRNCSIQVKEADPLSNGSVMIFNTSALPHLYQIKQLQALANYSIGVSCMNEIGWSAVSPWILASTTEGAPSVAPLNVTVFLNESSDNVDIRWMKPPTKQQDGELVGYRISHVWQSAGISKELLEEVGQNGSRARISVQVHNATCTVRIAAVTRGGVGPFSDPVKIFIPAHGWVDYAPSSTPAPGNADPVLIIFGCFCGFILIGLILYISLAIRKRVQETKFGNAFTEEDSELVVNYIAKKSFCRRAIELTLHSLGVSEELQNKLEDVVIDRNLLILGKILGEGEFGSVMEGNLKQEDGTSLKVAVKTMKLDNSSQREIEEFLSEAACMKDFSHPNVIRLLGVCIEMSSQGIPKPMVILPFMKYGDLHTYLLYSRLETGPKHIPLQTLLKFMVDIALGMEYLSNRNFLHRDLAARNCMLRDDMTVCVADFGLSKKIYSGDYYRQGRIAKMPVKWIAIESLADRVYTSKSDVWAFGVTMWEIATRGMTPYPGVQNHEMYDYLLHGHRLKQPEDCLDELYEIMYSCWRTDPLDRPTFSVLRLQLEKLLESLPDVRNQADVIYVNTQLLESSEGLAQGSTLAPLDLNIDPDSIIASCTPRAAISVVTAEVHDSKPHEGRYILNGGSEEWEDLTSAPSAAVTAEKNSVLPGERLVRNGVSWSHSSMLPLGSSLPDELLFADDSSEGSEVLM
Experiment: phosphorylation enrichment, bacterial display (enrichment ratio); higher = better substrate or ligand; peptides without Tyr show the background;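 note: 11-residue human phosphosite peptides and single-mutation variants displayed on the E. coli surface, counted by deep sequencing, each peptide's frequency after selection divided by its frequency in the unselected input library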;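 note: frequency after pTyr selection over input frequency; kinase dosed for 20-30% of maximal phosphorylation in three min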
assay-endpoint: phosphorylation enrichment
Number only, no unit.

These solved cases illustrate the format of a correct answer.
| biopolymer-sequence | meas-value |
| --- | --- |
| ADYPDYKYRPR [SOX11_Y116] | 0.378 |
| PLQKIYNFNVL [SLC4A1_Y553_T552I_YF] | 0.811 |
| TFRPPYFHRNC [HGD_Y333_YF] | 1.03 |
| CTTIHYMYMCN [TP53_Y234_N235M] | 0.34 |
| DGTGHYLGNAC [GATA5_Y208_C210G] | 0.357 |
| RLSVDCGKKSK [TUBA4A_Y161_Y161C] | 0.432 |
| RYVTRSIYNRE [HLA-DQB1_Y62_Y62S] | 0.601 |
| DEYLEYRRIVG [FAM221A_Y20] | 0.38 |
| LSPPVYLTNEW [NRK_Y885_I880L] | 0.616 |
| VVLGSYDRLRV [IFT172_Y260] | 0.341 |

Exam item: Item SDYYAYSPVQE [H6PD_Y449_R453Q] has what recorded phosphorylation enrichment?
Marked response: 9.08

Exam item: Item VVEFGYEFFAK [PPP1CB_Y254_D252Y_YF] has what recorded phosphorylation enrichment?
Marked response: 0.488

Exam item: Item SDQPDYDSVAS [GIT2_Y392_N387S] has what recorded phosphorylation enrichment?
Marked response: 0.499

Exam item: Item FIGCIYLFLTK [GARS1_Y414_R412C_YF] has what recorded phosphorylation enrichment?
Marked response: 0.415

Exam item: Item SPPPAFTPMSG [ERBB4_Y1056_Y1056F] has what recorded phosphorylation enrichment?
Marked response: 0.461

Exam item: Item YADGVYLALEE [DUOX2_Y70_Q71L] has what recorded phosphorylation enrichment?
Marked response: 1.13

Exam item: Item HVSISYDIPLT [GAB1_Y307_P311L] has what recorded phosphorylation enrichment?
Marked response: 4.9

Exam item: Item DYGSGYPNDPK [RNASEH2A_Y210] has what recorded phosphorylation enrichment?
Marked response: 0.569

Exam item: Item VRQQVYKKVEE [HADHA_Y283] has what recorded phosphorylation enrichment?
Marked response: 0.346

Exam item: Item FADIAYNFHHG [PAH_Y166_R169H_YF] has what recorded phosphorylation enrichment?
Marked response: 0.406

Exam item: Item FQRLQYIKQLG [SAMHD1_Y146_R145Q] has what recorded phosphorylation enrichment?
Marked response: 0.404

Exam item: Item GVKLTYGDAQS [SLC28A1_Y404_N409S] has what recorded phosphorylation enrichment?
Marked response: 0.335

Exam item: Item QEMMEYRHQIQ [DES_Y324] has what recorded phosphorylation enrichment?
Marked response: 0.762

Exam item: Item EVKRLYGSVCD [TC2N_Y154] has what recorded phosphorylation enrichment?
Marked response: 0.515

Exam item: Item GCVSKYSGVFS [TUBGCP6_Y1624] has what recorded phosphorylation enrichment?
Marked response: 0.514

Exam item: Item QGLRLYRPHLA [BTK_Y617] has what recorded phosphorylation enrichment?
Marked response: 0.382

Exam item: Item RKVLVYDKLNV [ROR2_Y624_N620K] has what recorded phosphorylation enrichment?
Marked response: 2

Exam item: Item ANQDDYISFRH [IMP4_Y226] has what recorded phosphorylation enrichment?
Marked response: 0.482

Exam item: Item SQSKGYRPKLF [SIPA1L3_Y1376_G1371S_YF] has what recorded phosphorylation enrichment?
Marked response: 0.458

* * *

System: c-Abl (mouse)
Experiment: phosphorylation enrichment, bacterial display (enrichment ratio); higher = better substrate or ligand; peptides without Tyr show the background
assay-endpoint: phosphorylation enrichment
Number only, no unit.

| biopolymer-sequence | test-target | assay-endpoint | meas-value |
| --- | --- | --- | --- |
| VDTFWYKFLKR [EPM2A_Y86] | c-Abl (mouse) | phosphorylation enrichment | 0.78 |
| AGIVDYNIIGW [MYH7_Y588] | c-Abl (mouse) | phosphorylation enrichment | 0.619 |
| LPHVIYCRLWC [SMAD2_Y128_R133C] | c-Abl (mouse) | phosphorylation enrichment | 4.33 |
| YENGEYIIRQG [PRKG1_Y247] | c-Abl (mouse) | phosphorylation enrichment | 0.66 |

Exam item: Item INMKEYCKKDY [NTN1_Y490_K489E] has what recorded phosphorylation enrichment?
Marked response: 0.661

Exam item: Item RIDPDYVGRVR [IGSF9_Y81] has what recorded phosphorylation enrichment?
Marked response: 0.65

Exam item: Item AIYRRYSKFFD [SH3PXD2B_Y45] has what recorded phosphorylation enrichment?
Marked response: 0.783

Exam item: Item LLREWYMIISR [HUWE1_Y4066] has what recorded phosphorylation enrichment?
Marked response: 0.931

Exam item: Item NHFKIYNPCAE [PTEN_Y68_L70P_YF] has what recorded phosphorylation enrichment?
Marked response: 0.809

Exam item: Item HIKHNYECLVF [XRCC5_Y416_YF] has what recorded phosphorylation enrichment?
Marked response: 0.4

Exam item: Item RLFARYFQGDL [PDK3_Y337_YF] has what recorded phosphorylation enrichment?
Marked response: 0.524

Exam item: Item IGKAGYTDKMV [ENO1_Y236_V240M] has what recorded phosphorylation enrichment?
Marked response: 0.407

* * *

Target: FGFR3 (UniProt P22607)
Sequence (P22607 whole entry, looked up): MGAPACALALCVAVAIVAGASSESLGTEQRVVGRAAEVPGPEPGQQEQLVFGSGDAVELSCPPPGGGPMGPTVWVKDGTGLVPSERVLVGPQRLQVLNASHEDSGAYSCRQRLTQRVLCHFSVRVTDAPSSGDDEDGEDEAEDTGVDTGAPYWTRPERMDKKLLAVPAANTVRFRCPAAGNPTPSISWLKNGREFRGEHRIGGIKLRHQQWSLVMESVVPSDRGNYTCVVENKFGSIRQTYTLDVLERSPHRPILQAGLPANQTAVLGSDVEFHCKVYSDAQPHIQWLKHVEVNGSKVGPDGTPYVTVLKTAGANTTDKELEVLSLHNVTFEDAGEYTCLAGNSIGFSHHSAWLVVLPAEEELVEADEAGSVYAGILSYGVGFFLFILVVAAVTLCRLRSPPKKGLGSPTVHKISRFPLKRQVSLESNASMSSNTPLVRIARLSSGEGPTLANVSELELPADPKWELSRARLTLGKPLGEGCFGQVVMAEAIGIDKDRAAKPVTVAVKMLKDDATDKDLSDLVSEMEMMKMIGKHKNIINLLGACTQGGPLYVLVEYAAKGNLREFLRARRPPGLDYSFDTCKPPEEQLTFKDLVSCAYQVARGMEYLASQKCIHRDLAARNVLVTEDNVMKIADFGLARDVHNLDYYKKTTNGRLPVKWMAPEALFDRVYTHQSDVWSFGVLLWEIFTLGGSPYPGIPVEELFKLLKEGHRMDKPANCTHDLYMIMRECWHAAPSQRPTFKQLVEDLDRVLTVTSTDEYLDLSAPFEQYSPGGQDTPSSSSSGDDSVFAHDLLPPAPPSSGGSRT
Test: phosphorylation enrichment, bacterial display (enrichment ratio); higher = better substrate or ligand; peptides without Tyr show the background
Class Fulfilled: phosphorylation enrichment at least 1. Class Not fulfilled: phosphorylation enrichment below 1.

Reference set (8 entries):
| biopolymer-sequence | test-target | answer-label |
| --- | --- | --- |
| PQGVSYIYTID [DCX_Y103_R102S] | FGFR3 (UniProt P22607) | Fulfilled |
| PATYTYDEYKK [COL8A2_Y648] | FGFR3 (UniProt P22607) | Not fulfilled |
| VSKGGYFSVNL [C3orf33_Y164] | FGFR3 (UniProt P22607) | Not fulfilled |
| QADVIYVNTQL [MERTK_Y872] | FGFR3 (UniProt P22607) | Fulfilled |
| LITSVYGCSRQ [TMPRSS6_Y290] | FGFR3 (UniProt P22607) | Fulfilled |
| GGQEDYDRLRP [RAC3_Y64_A59G] | FGFR3 (UniProt P22607) | Not fulfilled |
| IHETTYNSIKK [ACTA1_Y281_M285K] | FGFR3 (UniProt P22607) | Not fulfilled |
| LISVSYDDWDY [GRIN2A_Y281] | FGFR3 (UniProt P22607) | Fulfilled |

Exam item: Say whether AFSTVYKGLWI [EGFR_Y727_G724S] shows phosphorylation enrichment of 1 or more.
Marked response: Not fulfilled

Exam item: Say whether GCCSWYRGWAP [TIMP3_Y195_Y191C] shows phosphorylation enrichment of 1 or more.
Marked response: Not fulfilled

Exam item: Say whether HGEAYYSEVKA [PAK5_Y182_P187A] shows phosphorylation enrichment of 1 or more.
Marked response: Fulfilled

Exam item: Say whether AIMSFYATLID [RYR1_Y2426_A2428T] shows phosphorylation enrichment of 1 or more.
Marked response: Fulfilled

Exam item: Say whether EKQVAYCPSGK [ROS1_Y2323] shows phosphorylation enrichment of 1 or more.
Marked response: Not fulfilled

* * *

Target: Fes (UniProt P07332)
Sequence (P07332 whole entry, looked up): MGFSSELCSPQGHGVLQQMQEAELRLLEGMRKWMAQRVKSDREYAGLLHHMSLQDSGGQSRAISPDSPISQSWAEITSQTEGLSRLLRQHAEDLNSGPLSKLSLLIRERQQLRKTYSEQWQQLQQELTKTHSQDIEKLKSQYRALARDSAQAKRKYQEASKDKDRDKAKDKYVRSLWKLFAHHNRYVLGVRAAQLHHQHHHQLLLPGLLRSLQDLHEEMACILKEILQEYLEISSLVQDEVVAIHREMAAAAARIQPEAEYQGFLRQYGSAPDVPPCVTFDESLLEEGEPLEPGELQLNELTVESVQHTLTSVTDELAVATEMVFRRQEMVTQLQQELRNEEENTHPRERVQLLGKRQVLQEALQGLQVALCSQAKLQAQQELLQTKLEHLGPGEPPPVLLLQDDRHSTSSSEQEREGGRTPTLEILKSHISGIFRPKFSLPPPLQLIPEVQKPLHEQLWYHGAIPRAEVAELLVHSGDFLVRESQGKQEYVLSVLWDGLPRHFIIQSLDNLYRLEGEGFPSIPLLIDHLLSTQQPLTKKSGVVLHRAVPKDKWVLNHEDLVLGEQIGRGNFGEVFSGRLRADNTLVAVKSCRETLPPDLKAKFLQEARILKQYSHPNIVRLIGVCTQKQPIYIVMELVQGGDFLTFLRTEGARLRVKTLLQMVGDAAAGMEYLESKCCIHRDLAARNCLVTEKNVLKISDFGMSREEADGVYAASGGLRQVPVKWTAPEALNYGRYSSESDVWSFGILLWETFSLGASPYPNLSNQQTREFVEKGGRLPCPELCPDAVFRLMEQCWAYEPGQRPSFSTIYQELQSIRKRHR
Assay: phosphorylation enrichment, bacterial display (enrichment ratio); higher = better substrate or ligand; peptides without Tyr show the background
Heads up, the class ranges for phosphorylation enrichment are low group = under 0.7, middle group = from 0.7 up to 1, high group = 1 and over

Reference set (3 entries):
| biopolymer-sequence | test-target | answer-label |
| --- | --- | --- |
| ADDSYYTVRSA [ZAP70_Y493_A495V] | Fes (UniProt P07332) | middle group |
| GRFSGYKSKHG [EPHA3_Y570_C568S] | Fes (UniProt P07332) | low group |
| KELAPYDENRF [RPS19_Y48_W52R] | Fes (UniProt P07332) | high group |

Exam item: Form: Item = SIKHKYVTALF [KCNH2_Y611_D609H_YF] ; Class = ?
Marked response: low group

Exam item: Form: Item = EFENSCIFDIN [GAB1_Y83_Y83C] ; Class = ?
Marked response: middle group

* * *

Molecular target: Jak2 (UniProt O60674)
Sequence (O60674 whole entry, looked up): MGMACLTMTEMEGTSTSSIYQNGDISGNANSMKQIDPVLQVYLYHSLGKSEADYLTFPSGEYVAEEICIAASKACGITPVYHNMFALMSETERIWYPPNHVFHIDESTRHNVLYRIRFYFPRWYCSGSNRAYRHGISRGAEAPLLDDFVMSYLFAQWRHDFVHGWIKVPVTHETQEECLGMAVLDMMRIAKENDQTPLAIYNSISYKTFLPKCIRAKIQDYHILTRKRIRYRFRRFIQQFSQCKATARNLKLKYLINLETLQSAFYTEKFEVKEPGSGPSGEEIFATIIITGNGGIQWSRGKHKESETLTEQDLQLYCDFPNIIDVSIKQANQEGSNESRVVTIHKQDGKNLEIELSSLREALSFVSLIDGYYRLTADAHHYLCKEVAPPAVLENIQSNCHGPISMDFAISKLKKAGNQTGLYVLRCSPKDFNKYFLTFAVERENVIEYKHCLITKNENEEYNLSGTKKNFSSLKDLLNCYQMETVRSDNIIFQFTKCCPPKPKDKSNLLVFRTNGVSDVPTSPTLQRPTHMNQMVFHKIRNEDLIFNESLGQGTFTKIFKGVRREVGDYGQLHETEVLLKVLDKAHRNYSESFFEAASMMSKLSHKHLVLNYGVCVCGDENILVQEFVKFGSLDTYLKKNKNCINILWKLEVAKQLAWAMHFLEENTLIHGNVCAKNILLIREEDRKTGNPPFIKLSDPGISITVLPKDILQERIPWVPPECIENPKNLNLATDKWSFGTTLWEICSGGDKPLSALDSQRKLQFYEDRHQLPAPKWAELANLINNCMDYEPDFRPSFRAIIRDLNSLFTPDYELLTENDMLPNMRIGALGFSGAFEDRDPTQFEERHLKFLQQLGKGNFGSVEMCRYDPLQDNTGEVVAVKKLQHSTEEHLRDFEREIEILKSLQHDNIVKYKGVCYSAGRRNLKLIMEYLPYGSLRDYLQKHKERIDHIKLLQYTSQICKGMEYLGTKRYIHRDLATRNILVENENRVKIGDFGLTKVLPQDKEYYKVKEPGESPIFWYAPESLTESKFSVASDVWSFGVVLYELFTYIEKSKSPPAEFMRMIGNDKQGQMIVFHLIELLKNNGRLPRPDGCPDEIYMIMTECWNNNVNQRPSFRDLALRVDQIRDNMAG
Test: phosphorylation enrichment, bacterial display (enrichment ratio); higher = better substrate or ligand; peptides without Tyr show the background
Class Y: phosphorylation enrichment at least 0.8. Class N: phosphorylation enrichment below 0.8.

Exam item: Say whether ADELEYSRTGL [MMUT_Y287_G284E] shows phosphorylation enrichment of 0.8 or more.
Marked response: N
